// provenance: the supplement of paper PMC9170038

Answer each item with its documented apparent KD of K4 kissing-loop reporter.
system: K4 kissing-loop RNA reporter; assay: apparent KD of K4 kissing-loop reporter; higher = weaker reporter binding; settings: Eterna round: R107; input ligand: arginine 13.2 mM;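 note: bound reporter read as fluorescence of individual clusters on recovered sequencing chips by microscopy, with normalized cluster intensities fitted with a binding model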

Problem: Give the measured apparent KD of K4 kissing-loop reporter for GGGAACUCUUACGAUACCAGCCGGAGUGAUGUUCCGUGCUUGGACGUAGUAACCCGCACCGGCCCUUGGCAGCGUGGAUCUUGUG [Esgeonin]
Solution: 0.0655 µM

Problem: Give the measured apparent KD of K4 kissing-loop reporter for UGAUACCAGACGGCCGCCACUUCUGCAAGUCAAAGACUUGCUAAAGGAAUCGUCCAGUGAUGUUGGAGGACCGGGUCUGGUAUCU [FiskerMod 1 - Jieux - Exclusion - Tryptophan B]
Solution: 0.823 µM

Problem: Give the measured apparent KD of K4 kissing-loop reporter for AAUCAAUACAGAAGGAGCGUGACAAUUACUAUUGAUUCAGGAGCUAGUGAUGUUAGCAUUUCACAGGUAGGUCGCUGUACAUUUA [JR_SSArginiB_Sub013]
Solution: 0.203 µM

Problem: Give the measured apparent KD of K4 kissing-loop reporter for UUUCUACCGGGAAGGAGCGUGAAUGAUAAUGGAUAUAGUGAUGUUAUAUAUACGAACGAAUCGCAGGUAGGUCGCCCGGAUCACU [SSArgB.U]
Solution: 0.859 µM

Problem: Give the measured apparent KD of K4 kissing-loop reporter for CGGAUGUAGUGAUGUUAUAUUAGAUGUAGACGAGGACCGGUACGGCCGCCACUCGUGAUGGCUGCUAGCACGUUUCGAUGUUUGC [ExTryptoA.Cq]
Solution: 0.483 µM

Problem: Give the measured apparent KD of K4 kissing-loop reporter for GCUAUGGUAGGAAGGAGCGCUACUUUGUUUUUACGAGUGAUGUUCGGAAGCAGAGUGUUAAAGCAGGUAGGUCGCCUACUAUAGC [Arginine B K4 20]
Solution: 0.154 µM

---

test system: MS2 coat protein; experiment: apparent KD of MS2 coat protein; designed switch direction (-1 OFF switch, 1 ON switch): 1; higher = weaker reporter binding; conditions: input ligand: FMN 200 uM
Parameter threshold = 30 nM. Response is Criterion met when apparent KD of MS2 coat protein meets or exceeds it, else Criterion not met.

Problem: For this sequence, is measured apparent KD of MS2 coat protein 30 nM or higher? CACAUGAGGAUCACCCAUGUCAGACAAAGGAGCAUGACGCUACAGGAUAUGUGAGCGACUAACGAAUAGAAGGGUAGCCAUCAC [Eternabot solution 27] (Eterna round: R96, puzzle: Same State NG 3)
Solution: Criterion not met

Problem: For this sequence, is measured apparent KD of MS2 coat protein 30 nM or higher? UAGGAACAUGAGGAUCACCCAUGUACCUCAUAUGGAGAAACACAGGAUAUGCUGAGGGAAACACAGCAGAAGGGUGAAGAGAGG [Default title] (Eterna round: R96, puzzle: Same State NG 3)
Solution: Criterion not met

Problem: For this sequence, is measured apparent KD of MS2 coat protein 30 nM or higher? GGACGAGACGCAGGAUAUGCGAAGAAGAAGGAAGCAGAAGGGCGUGUGGGACGACAUGAGGAUCACCCAUGUUCUCUGCGAGGA [ssng1 b] (Eterna round: R96, puzzle: Same State NG 1)
Solution: Criterion met

Problem: For this sequence, is measured apparent KD of MS2 coat protein 30 nM or higher? CGUUCACAUGAGGAUCACCCAUGUCAGAUUUGGUCAGGAUAUGGUCGGCUUCCGCUAUUGCCAGAAGGGACUGUUG [JR_SS001_Sub705] (Eterna round: R96, puzzle: Same State 1)
Solution: Criterion not met

Problem: For this sequence, is measured apparent KD of MS2 coat protein 30 nM or higher? AUUUUUAAUGCAGGAUAUGAUUAACAUGAGGAUCACCCAUGUGGUGUUGUGAGUAAGGAGAGUGAUCAGAAGGGCAUCUUUUCA [SS-NG2-LRO02] (Eterna round: R96, puzzle: Same State NG 2)
Solution: Criterion met

Problem: For this sequence, is measured apparent KD of MS2 coat protein 30 nM or higher? CUGAGCAGUCAAGGAUAUCACGUCGAUUAGACGUGAGAAGGUGAUUAAUACAUGAGGAUCACCCAUGUAAUACAUGAAGCUCAG [SSNG1/11-A2] (Eterna round: R96, puzzle: Same State NG 1)
Solution: Criterion not met

Problem: For this sequence, is measured apparent KD of MS2 coat protein 30 nM or higher? GAUUAACAUGAGGAUCACCCAUGUCGUUUAAUGGGAGGAUAUACGUGGACCGUAGUCCGCGUAGAAGGCCUAAUUG [JL-ss1-3.22 janelle mod] (Eterna round: R96, puzzle: Same State 1)
Solution: Criterion met

Problem: For this sequence, is measured apparent KD of MS2 coat protein 30 nM or higher? AGAUCAUGACGAGGAUAUGGUACAUGAGGAUCACCCAUGUAUGUACCAUAGCAACAGCUAGGAAACCAGAAGGCGUCGUGGUCA [jandersonlee JLSSNG2 1.18 Native F5 + F7] (Eterna round: R96, puzzle: Same State NG 2)
Solution: Criterion not met

Problem: For this sequence, is measured apparent KD of MS2 coat protein 30 nM or higher? GUGGUCAGACAUGAGGAUCACCCAUGUGGAAUAAAUAAGGCAUAGGAUAUAAAAUAUAGGAUAUAUUAGAAGGAUGGGUUGGUG (Eterna round: R96, puzzle: Same State NG 3)
Solution: Criterion met
